Parameter: pIC50. Scope: all listed entries.
# Target: DPP-IV (Homo sapiens)
# Construct: an extract of human colon carcinoma cell line Caco-2 is used as the DPP IV source; endogenous in cells; Nonidet-P40 solubilised extract
# Test name: DPP-IV assay with Caco-2 cell extract as DPP IV source
# Condition summary: extract of human colon carcinoma cell line Caco-2 as DPP IV source; substrate AFC 100 μM; 60 minutes at ambient temperature; 11 measuring points; read-out: DPP IV inhibition IC50
Reminder that pIC50 is minus the log10 of a molar concentration.

Molecule: CC#CCn1c(N2CCCC(N)C2)nc2c1c(=O)n(CC(=O)Nc1ccc(C#N)cc1)c(=O)n2C (stereo not shown)
pIC50: 7.38
--
Molecule: CC#CCn1c(N2CCC[C@@H](N)C2)nc2c1c(=O)n(CC(=O)Nc1ccccc1OC)c(=O)n2C
pIC50: 7.49
--
Molecule: CC#CCn1c(N2CCC[C@@H](N)C2)nc2c1c(=O)n(CC(=O)OCc1cccnc1)c(=O)n2C
pIC50: 7.89

Attention now shifts to the item below.
Exercise: Fill in the blank: the reported pIC50 of CC#CCn1c(N2CCC[C@@H](N)C2)nc2c1c(=O)n(CC(=O)Nc1cccnc1)c(=O)n2C is ____.
Solution: 8.15

----------
Parameter: pIC50. Scope: all listed entries.
# Target: DPP-IV (Homo sapiens)
# Construct: an extract of human colon carcinoma cell line Caco-2 is used as the DPP IV source; endogenous in cells; Nonidet-P40 solubilised extract
# Test name: DPP-IV assay with Caco-2 cell extract as DPP IV source
# Condition summary: extract of human colon carcinoma cell line Caco-2 as DPP IV source; substrate AFC 100 μM; 60 minutes at ambient temperature; 11 measuring points; read-out: DPP IV inhibition IC50
Reminder that pIC50 is minus the log10 of a molar concentration.

Exercise: Fill in the blank: the reported pIC50 of CC#CCn1c(N2CCC[C@@H](N)C2)nc2c1c(=O)n(CC(=O)Nc1ccccn1)c(=O)n2C is ____.
Solution: 8.40

Exercise: Fill in the blank: the reported pIC50 of CC#CCn1c(N2CCC[C@@H](N)C2)nc2c1c(=O)n(CC(=O)Nc1ccccc1C)c(=O)n2C is ____.
Solution: 6.14

Exercise: Fill in the blank: the reported pIC50 of CC#CCn1c(N2CCCC(N)C2)nc2c1c(=O)n(CC(=O)NCc1ccccc1N)c(=O)n2C (centres unmarked) is ____.
Solution: 7.55

----------
# Target: DPP-IV (Homo sapiens, UniProt P27487)
# Construct: an extract of human colon carcinoma cell line Caco-2 is used as the DPP IV source; endogenous in cells; host or cells: Caco-2 (human colon carcinoma), differentiated to induce DPP-IV expression; Nonidet-P40 solubilised extract
# Sequence (P27487 whole entry): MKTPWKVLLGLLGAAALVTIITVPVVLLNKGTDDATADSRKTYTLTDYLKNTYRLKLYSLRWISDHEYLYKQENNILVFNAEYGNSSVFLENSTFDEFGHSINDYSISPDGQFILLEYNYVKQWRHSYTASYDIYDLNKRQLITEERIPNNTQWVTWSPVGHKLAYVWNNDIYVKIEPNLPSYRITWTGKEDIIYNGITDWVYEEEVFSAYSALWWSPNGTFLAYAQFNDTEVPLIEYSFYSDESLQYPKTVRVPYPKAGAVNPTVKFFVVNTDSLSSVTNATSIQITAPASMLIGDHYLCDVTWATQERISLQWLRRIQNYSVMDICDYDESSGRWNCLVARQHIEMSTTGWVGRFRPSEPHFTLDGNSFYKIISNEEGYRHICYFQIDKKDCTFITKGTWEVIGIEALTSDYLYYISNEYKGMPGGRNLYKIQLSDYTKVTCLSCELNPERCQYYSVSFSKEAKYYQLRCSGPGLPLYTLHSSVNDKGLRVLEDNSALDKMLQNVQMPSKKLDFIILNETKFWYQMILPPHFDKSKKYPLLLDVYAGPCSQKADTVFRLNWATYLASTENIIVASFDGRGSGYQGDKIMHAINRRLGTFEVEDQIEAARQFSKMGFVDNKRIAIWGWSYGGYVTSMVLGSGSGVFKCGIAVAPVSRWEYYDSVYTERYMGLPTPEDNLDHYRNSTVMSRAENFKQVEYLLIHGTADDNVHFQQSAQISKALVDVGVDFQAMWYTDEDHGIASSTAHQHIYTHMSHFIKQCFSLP
# Test name: DPP-IV assay with Caco-2 cell extract as DPP IV source
# Format: biochemical
# Condition summary: extract of human colon carcinoma cell line Caco-2 as DPP IV source; substrate AFC 100 μM; 60 minutes at ambient temperature; 11 measuring points; read-out: DPP IV inhibition IC50
# Method: The differentiation of the cells in order to induce the DPP-IV expression was carried out as described by Reiher et al. in an article entitled “Increased expression of intestinal cell line Caco-2”, which appeared in Proc. Natl. Acad. Sci. Vol. 90, pages 5757-5761 (1993). The cell extract was obtained from cells solubilised in a buffer (10 mM Tris HCl, 0.15 M NaCl, 0.04 t.i.u. aprotinin, 0.5% Nonidet-P40, pH 8.0) by centrifuging at 35,000 g for 30 minutes at 4° C. (to remove cell debris). […]
pIC50: −log10 of the molar value.
Rule: pIC50 of 8 or more gives 1 (yes); anything lower gives 0 (no).

Compound: CC#CCn1c(N2CCCC(N)C2)nc2c1c(=O)n(CC(=O)COc1ccccc1)c(=O)n2C (centres unmarked) [1(10)]
Target: DPP-IV (Homo sapiens, UniProt P27487)
Class name: 0 (no)
//
Compound: CC#CCn1c(N2CCC[C@@H](N)C2)nc2c1c(=O)n(CC(=O)Nc1ccccc1[N+](=O)[O-])c(=O)n2C [1(7)]
Target: DPP-IV (Homo sapiens, UniProt P27487)
Class name: 1 (yes)

Exercise: Hello, I need to know if CC#CCn1c(N2CCC[C@@H](N)C2)nc2c1c(=O)n(CC(=O)OCc1ccccc1)c(=O)n2C [Example 1] has measured pIC50 not below 8. Thanks!
Solution: 0 (no)

Exercise: Hello, I need to know if CC#CCn1c(N2CCC[C@@H](N)C2)nc2c1c(=O)n(CC(=O)NCc1ccccc1)c(=O)n2C [1(1)] has measured pIC50 not below 8. Thanks!
Solution: 0 (no)

Exercise: Hello, I need to know if CC#CCn1c(N2CCC[C@@H](N)C2)nc2c1c(=O)n(CC(=O)Nc1ccccc1)c(=O)n2C [1(2)] has measured pIC50 not below 8. Thanks!
Solution: 0 (no)

The values you see were collected from patent US7560450B2.
